Test system: Bacillus subtilis
Experiment: cleaved RNA product abundance (RNA/gDNA barcode ratio) relative to median wild-type variant (ratio to wild type); higher = more accumulation of the downstream cleavage product
Conditions: experiment (reporter, strain, medium): exp 4a: truncated aprE reporter, strain BJT201 with 2% xylose (RNase J1 expressed); cleavage site: cggR-gapA (positions -7 to +36 mutated)
quantity: cleaved RNA product abundance

Record excerpt, results attached:
monomerSequence | measuredTarget | cleaved RNA product abundance
ACAGACGAAGGAGCCGCAAAGAAGTTATTAAGGGATGTATAATCCCTTAATATAAATATCTCTCACTTATTTAAA | Bacillus subtilis | 0.445
ACAGACGAAGGAGCCGCAAAGAAGTTATTAAGGGATGAAAAATCCATCAATATAAATATCTCTCACTTATTTAAA | Bacillus subtilis | 0.223
ACAGACGAAGGAGCCGCAAAGAAGTTATTAAGAGATGACTAATCCCTCAATATAAATATCTCTCACTTATTTAAA | Bacillus subtilis | 0.0924
ACAGACGAAGGAGCCGCAAAGAAGTTATTAAGGGATGAATAATCCCTCAATATAAATACCTCTCACTTATTTAAA | Bacillus subtilis | 0.56
ACAGACGAAGGAGCCGCAAAGAAGTTATTAAGGGATGAATAATCCCACAATATAAAAATCTCTCACTTATTTAAA | Bacillus subtilis | 0.25
ACAGACGAAGGAGCCGCAAAAAAGTTAATAAGGGATGAATAATCCCTCAATATAAATATCTCTCACTTATTTAAA | Bacillus subtilis | 0.365

Please give measured cleaved RNA product abundance of the following entry: ACAGACGAAGGAGCCGCATAGAAGTTATTAAGAGATGAATAATCCCTCAATATAAATATCTCTCACTTATTTAAA
0.154

====

Tested on: Bacillus subtilis
Assay: cleaved RNA product abundance (RNA/gDNA barcode ratio) relative to median wild-type variant (ratio to wild type); higher = more accumulation of the downstream cleavage product
Conditions: experiment (reporter, strain, medium): exp 2b: truncated aprE reporter, strain BJT200; cleavage site: cggR-gapA (positions -7 to +36 mutated)
Recorded cleaved RNA product abundance for the following sequences
Could you keep your reply to the number by itself?

Record excerpt, results attached:
monomerSequence | cleaved RNA product abundance
ACAGACGAAGGAGCCGCAATGAAGTTATTAAGGGATGAATAATCTCTCAATATAAATATCTCTCACTTATTTAAA | 0.942
ACAGACGAAGGAGCCGCAAAGAAGTTATTAAAGGATTAATAATCCCTCAATATAAATATCTCTCACTTATTTAAA | 0.154
ACAGACGAAGGAGCCGCAAAGAAGTTATTAAGGTATGAATAATTCCTCAATATAAATATCTCTCACTTATTTAAA | 0.0842
ACAGACGAAGGAGCCGCACAGAAGTTATTAAGGGATGAATAATCCCTCAACATAAATATCTCTCACTTATTTAAA | 0.198
ACAGACGAAGGAGCCGCAAAGAAGTTATTAAGGGATAAATAATCACTCAATATAAATATCTCTCACTTATTTAAA | 0.0853

Please give measured cleaved RNA product abundance of the following entry: ACAGACGAAGGAGCCGCAAAGAAGTTATTAAGGGATGAATAATCCATCAATATATATATCTCTCACTTATTTAAA
0.19

Please give measured cleaved RNA product abundance of the following entry: ACAGACGAAGGAGCCGCAAAGAAGTTATTAAGGGATGAAGAATCCATCAATATAAATATCTCTCACTTATTTAAA
0.124

Please give measured cleaved RNA product abundance of the following entry: ACAGACGAAGGAGCCGCGAATAAGTTATTAAGGGATGAATAATCCCTCAATATAAATATCTCTCACTTATTTAAA
1.19

Please give measured cleaved RNA product abundance of the following entry: ACAGACGAAGGAGCCGCAAAGAAGTTATTAAGAGATGAATAATCCCTCAATATAAATATCTCTCACTTATTTAAA
0.111

Please give measured cleaved RNA product abundance of the following entry: ACAGACGAAGGAGCCGCAAAGAAGCTATTAAGGGATGAATAATTCCTCAATATAAATATCTCTCACTTATTTAAA
0.432
